Below, each entry is listed alongside its reported protein stability index.
test: protein stability index of a GFP-peptide fusion (GPS, HEK-293T) (PSI 1-6); higher = more stable; conditions: treatment: DMSO; c terminus: a fixed tail appended;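 note: 24-mer peptide tiles fused after GFP, lentivirally expressed, FACS-sorted into six equal bins by GFP/DsRed ratio, decoded by Illumina sequencing, PSI is the read-weighted mean bin number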
Number, no unit, nothing else.

Some solved entries appear below for comparison.
NNDDDEDEDDEDEDEDEDEDEDED [TAF7L]
5.57
MQRLVAWDPACLPLPPPPPAFKSM [CEBPB]
2.63
SDPENWDRKLHSRPRKLYKHSSTS [BTBD10]
3.77

Task: Which protein stability index value belongs to QKALYRRLATVHMSRMINKYKRRR [CLPTM1] ?
Output: 3.7

---

Below, each entry is listed alongside its reported protein stability index.
test: protein stability index of a GFP-peptide fusion (GPS, HEK-293T) (PSI 1-6); higher = more stable; conditions: treatment: DMSO; c terminus: a fixed tail appended

Some solved entries appear below for comparison.
ALKRFVNLVARHPLFSEDVVLKLF [SNX8]
2.38
VPPKDSAPKDSAPQDLAPQVSAHH [TBC1D10A]
5.47
TLPEYRVSVPENLPVGTQLLTVTA [PCDHGA10]
3.36

Task: Which protein stability index value belongs to KDPSAIGKKQVPCFASMLTKKLHF [CASP6] ?
Output: 2.23

Task: Likewise for RPNSRHTPSFSGDSSSSCSDHCIT [VDR] ?
Output: 4.52

---

test: protein stability index of a GFP-peptide fusion (GPS, HEK-293T) (PSI 1-6); higher = more stable; conditions: treatment: MLN4924 1 uM, 8 h; c terminus: a fixed tail appended
We use 3 as the dividing line for protein stability index: on or above the line is Met, below is Not met.

Worked examples, 5 sequences total:
RRVGGSRILLRMTLGREVMSPLQA [NLN]
Not met
VTSIHKYMVRRYFNKPSRVPAPEA [MYORG]
Not met
LMTCEMLNRRNGSLRIALSEHLKQ [EDNRA]
Not met
MRHIRFLKNEVERLKKQLRAAQLQ [CCDC6]
Not met
LCWDPVQRVLFSGSSDHSVIMWDI [WDFY2]
Not met

Task: Tell me whether protein stability index is at least 3 here: GGPAQNAPHQQPPAPPSDALLDLH [TFE3]
Output: Met

Task: Likewise for CRTYIIHYYLMDDTVEIREVHERN [EFHC1] ?
Output: Not met

Task: Likewise for RADQLCQQELRELRRELELLGRER [PRPH] ?
Output: Met

Task: Likewise for LEANADTSVEEESFGPQPISRLEQ [RAD51] ?
Output: Met

Task: Likewise for NSTGGDCFYRGYTSGVAAVQDWYH [SCNN1D] ?
Output: Not met

---

experiment: protein stability index of a GFP-peptide fusion (GPS, HEK-293T) (PSI 1-6); higher = more stable; conditions: treatment: MLN4924 1 uM, 8 h; c terminus: a fixed tail appended
OUTCOME MEASURE: protein stability index

Some solved entries appear below for comparison.
CFNRSREYQLNDSAAYYLNDLDRI [GNAI1]
2.46
EVILLVVMAYDRYMAICKPLHELI [OR4A15]
2.97

// next entry
Task: Which protein stability index value belongs to QHCRQSLASRIRSNKKMLLLVGGL [KLHL14] ?
Output: 2.24

---

experiment: protein stability index of a GFP-peptide fusion (GPS, HEK-293T) (PSI 1-6); higher = more stable; conditions: treatment: MLN4924 1 uM, 8 h; c terminus: a fixed tail appended
We use 5 as the dividing line for protein stability index: on or above the line is MET, below is NOT MET.

DQENFQGKRMEFTSSCPNVSERSF [CRYBA1]
NOT MET

Task: Tell me whether protein stability index is at least 5 here: NITVVKGIRLSENVIDRMKESSPS [CHCHD3]
Output: NOT MET

Task: Likewise for DQNTVVTRQLSEENANLQEYVEKE [MTUS2] ?
Output: MET

Task: Likewise for PYQVNGVNPAYPESRYTSDYFISY [ETS1] ?
Output: NOT MET

Task: Likewise for KEGGQAGSGQRVPALEEAPDSHQK [ELOA2] ?
Output: MET

Task: Likewise for NKRLAKYRMRNVHPKPKLVRVLES [CLCN6] ?
Output: NOT MET
